The compounds listed here are annotated with their pIC50.
Biological target: mTOR (Homo sapiens (Human))
Sequence (P42345 1360-2549): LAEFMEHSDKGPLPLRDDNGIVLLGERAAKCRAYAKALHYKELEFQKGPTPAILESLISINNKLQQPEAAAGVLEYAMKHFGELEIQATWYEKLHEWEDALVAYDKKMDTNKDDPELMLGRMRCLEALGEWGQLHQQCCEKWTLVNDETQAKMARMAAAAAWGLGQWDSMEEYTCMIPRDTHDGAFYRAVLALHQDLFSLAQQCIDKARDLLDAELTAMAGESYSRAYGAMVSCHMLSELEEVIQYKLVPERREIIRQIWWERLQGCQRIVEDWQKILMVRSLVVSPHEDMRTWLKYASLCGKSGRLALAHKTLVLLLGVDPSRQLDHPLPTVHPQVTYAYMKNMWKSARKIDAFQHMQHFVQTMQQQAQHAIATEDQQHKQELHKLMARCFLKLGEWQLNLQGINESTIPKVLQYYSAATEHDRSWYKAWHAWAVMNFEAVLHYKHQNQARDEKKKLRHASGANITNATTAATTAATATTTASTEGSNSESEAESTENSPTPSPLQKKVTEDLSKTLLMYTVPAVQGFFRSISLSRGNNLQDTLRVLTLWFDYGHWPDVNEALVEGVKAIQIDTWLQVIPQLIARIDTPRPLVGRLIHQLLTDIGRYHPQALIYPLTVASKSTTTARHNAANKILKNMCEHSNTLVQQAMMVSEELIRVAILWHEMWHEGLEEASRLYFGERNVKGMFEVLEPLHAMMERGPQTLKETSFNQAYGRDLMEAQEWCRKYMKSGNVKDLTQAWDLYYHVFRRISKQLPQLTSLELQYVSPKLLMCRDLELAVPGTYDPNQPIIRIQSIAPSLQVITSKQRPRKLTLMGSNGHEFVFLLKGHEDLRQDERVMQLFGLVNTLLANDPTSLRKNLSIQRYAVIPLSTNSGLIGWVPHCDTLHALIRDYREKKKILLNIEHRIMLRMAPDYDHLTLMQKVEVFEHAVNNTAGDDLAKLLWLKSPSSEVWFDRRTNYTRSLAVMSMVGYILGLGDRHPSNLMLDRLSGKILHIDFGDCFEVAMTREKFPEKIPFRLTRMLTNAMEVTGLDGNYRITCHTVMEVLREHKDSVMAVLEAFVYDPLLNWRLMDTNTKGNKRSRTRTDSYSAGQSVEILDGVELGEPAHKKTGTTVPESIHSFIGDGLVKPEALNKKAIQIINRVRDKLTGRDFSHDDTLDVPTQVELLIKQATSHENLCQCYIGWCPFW
Recall that pIC50 is obtained by taking minus log10 of the concentration measured in molar.

>>> measured_result("CCc1ncnc(N2CC[S+]([O-])CC2)c1C#Cc1ccc(N)nc1 [Example B-52]")
7.55
>>> measured_result("CCc1ncnc(N2CCC(F)(F)CC2)c1C#Cc1ccc(N)nc1 [Example B-42]")
7.51
>>> measured_result("CCc1ncnc(N2CCN(C(=O)N3CCOCC3)CC2)c1C#Cc1ccc(N)nc1 [Example H-16]")
7.66
>>> measured_result("Cc1ccc(C(=O)N2CCN(c3ncnc(C)c3C#Cc3ccc(N)nc3)CC2)o1 [Example G-10]")
7.22
>>> measured_result("COCCN1CCN(c2ncnc(C)c2C#Cc2ccc(N)nc2)CC1 [Example B-2]")
7.49

Field request: pIC50 | item: Cc1ncnc(N2CCC3(CCN(C)CC3)CC2)c1C#Cc1ccc(N)nc1 [Example B-80] 7.60

What do you get for CCc1ncnc(N2CCN(CCOC)CC2)c1C#Cc1ccc(N)nc1 [Example B-55] ? 7.59

Can you handle CCc1ncnc(N2CCN(C3CC3)CC2)c1C#Cc1ccc(N)nc1 [Example B-51] next? 7.37

Proceed to CCc1ncnc(N2CCC(NC(C)=O)CC2)c1C#Cc1ccc(N)nc1 [Example B-21] 7.72

How about CCc1ncnc(N2CCN(c3ccccn3)CC2)c1C#Cc1ccc(N)nc1 [Example H-21] ? 7.48

Request: Cc1ncnc(N2CC[S+]([O-])CC2)c1C#Cc1ccc(N)nc1 [Example B-3] 7.08

Also check CC(=O)N1CCCN(c2ncnc(C)c2C#Cc2ccc(N)nc2)CC1 [Example B-7] 7.03

Same for Cc1ncnc(N2CCC3(CCN(C)C3=O)CC2)c1C#Cc1ccc(N)nc1 [Example B-75] 8.00

Try CCc1ncnc(N2CCN(C)C(=O)C2)c1C#Cc1ccc(N)nc1 [Example H-13] next. 7.43

For CCc1ncnc(N2CCN(C(=O)NC)CC2)c1C#Cc1ccc(N)nc1 [Example G-1] then? 7.08

###

Target: PI3Kalpha (Homo sapiens (Human))
Sequence (P42336 whole entry, species assumed): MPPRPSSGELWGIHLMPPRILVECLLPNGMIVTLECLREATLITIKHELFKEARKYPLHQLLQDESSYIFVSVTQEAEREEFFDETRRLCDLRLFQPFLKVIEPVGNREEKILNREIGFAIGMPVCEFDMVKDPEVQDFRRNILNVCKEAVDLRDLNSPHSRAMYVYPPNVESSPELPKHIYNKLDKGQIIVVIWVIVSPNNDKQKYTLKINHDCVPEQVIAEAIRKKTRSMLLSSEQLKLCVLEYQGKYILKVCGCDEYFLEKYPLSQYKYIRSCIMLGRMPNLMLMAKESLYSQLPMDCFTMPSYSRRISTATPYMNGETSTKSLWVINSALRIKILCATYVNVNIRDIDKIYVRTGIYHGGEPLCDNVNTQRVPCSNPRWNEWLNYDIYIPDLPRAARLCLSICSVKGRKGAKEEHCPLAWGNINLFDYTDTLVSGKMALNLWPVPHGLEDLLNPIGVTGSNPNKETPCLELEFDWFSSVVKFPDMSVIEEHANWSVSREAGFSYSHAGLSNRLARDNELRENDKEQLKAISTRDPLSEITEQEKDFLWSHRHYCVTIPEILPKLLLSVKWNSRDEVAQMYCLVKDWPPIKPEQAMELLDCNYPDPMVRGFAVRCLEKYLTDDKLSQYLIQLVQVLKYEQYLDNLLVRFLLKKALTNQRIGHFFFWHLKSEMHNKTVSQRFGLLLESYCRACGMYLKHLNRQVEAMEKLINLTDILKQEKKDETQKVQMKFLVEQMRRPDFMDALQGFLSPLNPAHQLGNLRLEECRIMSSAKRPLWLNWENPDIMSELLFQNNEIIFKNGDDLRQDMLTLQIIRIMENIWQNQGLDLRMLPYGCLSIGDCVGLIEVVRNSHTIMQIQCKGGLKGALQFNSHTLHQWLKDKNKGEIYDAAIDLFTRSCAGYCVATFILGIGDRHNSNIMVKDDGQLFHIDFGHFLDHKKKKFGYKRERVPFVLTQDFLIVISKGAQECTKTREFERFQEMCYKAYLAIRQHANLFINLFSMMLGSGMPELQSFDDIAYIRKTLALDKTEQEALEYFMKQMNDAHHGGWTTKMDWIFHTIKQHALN
Sequence (P27986 whole entry partner, species assumed): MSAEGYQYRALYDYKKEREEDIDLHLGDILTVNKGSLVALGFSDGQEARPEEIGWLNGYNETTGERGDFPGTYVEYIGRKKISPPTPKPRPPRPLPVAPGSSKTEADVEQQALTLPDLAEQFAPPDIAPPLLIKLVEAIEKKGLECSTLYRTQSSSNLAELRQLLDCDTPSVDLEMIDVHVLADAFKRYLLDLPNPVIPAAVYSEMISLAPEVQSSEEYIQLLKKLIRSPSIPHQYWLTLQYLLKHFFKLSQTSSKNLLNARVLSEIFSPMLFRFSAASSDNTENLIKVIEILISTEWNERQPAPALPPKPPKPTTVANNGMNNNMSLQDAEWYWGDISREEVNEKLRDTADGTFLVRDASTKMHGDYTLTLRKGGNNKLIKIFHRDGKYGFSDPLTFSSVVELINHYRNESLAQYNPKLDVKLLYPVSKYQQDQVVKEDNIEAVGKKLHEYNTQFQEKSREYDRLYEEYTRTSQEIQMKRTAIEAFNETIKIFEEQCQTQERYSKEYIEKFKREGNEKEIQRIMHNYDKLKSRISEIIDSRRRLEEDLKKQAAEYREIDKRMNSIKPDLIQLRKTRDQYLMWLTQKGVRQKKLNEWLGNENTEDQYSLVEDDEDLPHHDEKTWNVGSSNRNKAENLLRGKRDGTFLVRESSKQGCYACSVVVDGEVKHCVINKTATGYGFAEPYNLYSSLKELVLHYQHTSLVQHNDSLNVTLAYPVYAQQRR
Assay: Inhibition of PI3Kalpha-induced PIP-2 phosphorylation (filter-binding assay)
Format: biochemical
Settings: 33P-ATP
Procedure: Inhibition of PI3Kalpha-Induced PIP-2 Phosphorylation Method Type: Filter-Binding-Assay Aliquoted in desired amounts and stored at −80° C. Final assay concentration 25 ng/well.
readout type: IC50 PI3Ka

>>> measured_result("CCc1ncnc(N2CCC(F)(F)CC2)c1C#Cc1ccc(N)nc1")
"196 nM"

Bench note: what IC50 PI3Ka did Cc1ncnc(N2CC[S+]([O-])CC2)c1C#Cc1ccc(N)nc1 show? 199 nM

Further, for CCN(C)C(=O)CC1CCN(c2ncnc(C)c2C#Cc2ccc(N)nc2)CC1 ? 44 nM

Cc1ncnc(N2CCC(CCO)CC2)c1C#Cc1ccc(N)nc1 , same question. 14 nM

Next up: CCc1ncnc(N2CCC(COC)CC2)c1C#Cc1ccc(N)nc1 87 nM

Input CCc1ncnc(N2CCC3(CCN(C(=O)NC)CC3)CC2)c1C#Cc1ccc(N)nc1 50 nM

Same question, CCc1ncnc(N2CCC(O)(CC)CC2)c1C#Cc1ccc(C)nc1 this time 102 nM

Next: CCc1ncnc(N2CCN(C(=O)CC#N)CC2)c1C#Cc1ccc(N)nc1 60 nM

Please answer likewise for CCc1ncnc(N2CCC(CC(C)(C)O)CC2)c1C#Cc1ccc(N)nc1 26 nM

Ref: patent US8618111B2
